# Test system: A549
# test.protocol: Cytotoxicity against Homo sapiens (human) A549 cells after 72 hr by MTT assay
# Assay type: functional, cell-based
# assay.setup: A549, 72 h
Could you please mark true (1) for values of IC50 below 0.3 µg/mL and false (0) for values at or above it?

Reference set, count: 2
>>> df
                           smiles_text  assigned_label
0  CCOc1ccc(NC2=CC(=O)c3ncncc3C2=O)cc1        true (1)
1  O=C1C(Nc2ccc(I)cc2)=CC(=O)c2ncncc21        true (1)

With those in mind, consider the next molecule.
[ask] Is 0.3 µg/mL strictly greater than the molecule's reported IC50? molecule: `O=C1C(Nc2ccc(F)cc2)=C(Cl)C(=O)c2ncccc21`
[reply] false (0)

###

# System: A549
# test.protocol: Cytotoxicity against Homo sapiens (human) A549 cells after 72 hr by MTT assay
# Format: functional, cell-based
# assay.setup: A549, 72 h
We begin with a simple list: items and their reported IC50.
Give the quantity in µg/mL, number only.

For orientation, consider the following solved cases.
In [3]: df
Out[3]:
                                smiles_text  reported_property  recorded_value
0  O=C1C(Nc2ccc(Cl)cc2)=C(Cl)C(=O)c2ncncc21               IC50             0.3
1      O=C1C(Nc2ccccc2)=C(Cl)C(=O)c2ncccc21               IC50             2.3
2  O=C1C(Nc2ccc(C(F)(F)F)cc2)=C(Cl)C(=O)c2ncncc21               IC50            0.32
3     Cc1ccc(NC2=C(Cl)C(=O)c3ncccc3C2=O)cc1               IC50            1.14
4         Cc1ccc(NC2=CC(=O)c3ncncc3C2=O)cc1               IC50            0.02

[ask] Using the record for `O=C1C(Cl)=C(Nc2ccc(Br)cc2)C(=O)c2cnccc21` , state its measured IC50.
[reply] 1.96

[ask] Using the record for `O=C1C(Nc2ccc(I)cc2)=C(Cl)C(=O)c2ncncc21` , state its measured IC50.
[reply] 1.51

[ask] Using the record for `O=C1C(Nc2ccc(I)cc2)=C(Cl)C(=O)c2ncccc21` , state its measured IC50.
[reply] 4.29

Source of measurements: ChEMBL document CHEMBL3046012
